Study System: IRAK4 (Homo sapiens)
Sequence (Q9NWZ3 whole entry): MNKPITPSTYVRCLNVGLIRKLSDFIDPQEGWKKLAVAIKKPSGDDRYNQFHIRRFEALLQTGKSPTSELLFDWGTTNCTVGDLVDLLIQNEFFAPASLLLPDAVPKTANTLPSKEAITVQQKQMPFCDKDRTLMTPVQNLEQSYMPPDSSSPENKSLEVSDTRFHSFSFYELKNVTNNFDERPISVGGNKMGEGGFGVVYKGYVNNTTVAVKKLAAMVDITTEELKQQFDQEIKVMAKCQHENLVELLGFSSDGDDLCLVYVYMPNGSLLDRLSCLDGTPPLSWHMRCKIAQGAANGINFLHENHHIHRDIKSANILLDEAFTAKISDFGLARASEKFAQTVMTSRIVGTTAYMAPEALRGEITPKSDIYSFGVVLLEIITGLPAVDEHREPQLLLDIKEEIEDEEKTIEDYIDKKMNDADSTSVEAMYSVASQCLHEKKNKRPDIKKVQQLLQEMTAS
Assay Details: RBC HotSpot Kinase Assay, IRAK4
Assay type: biochemical
Set-up: purchased Reaction Biology (RBC HotSpot Kinase Assay)
The entries below are paired with their reported pIC50.
Reminder that pIC50 means the negative base-10 logarithm of the concentration expressed in mol/L.

Illustrative cases are given below, each with its answer.
* COc1cc2ncc(-c3nc(N[C@H]4CNC[C@@H]4F)c(F)cc3F)n2nc1C(C)(C)O | 8.40
* F[C@H]1CNC[C@@H]1Nc1cccc(-c2cnc3ccc(NC4CCC4)nn23)n1 | 7.00

Let's switch to this compound now.
Input line: # input compound: `COc1cc2ncc(-c3cccc(N[C@H]4CNC[C@@H]4F)n3)n2nc1-c1cnn(C)c1` ; wanted: its pIC50
Output line: 7.96
